# procedure-summary: inhibitors of TNFa-induced NFkB p65 translocation, primary screen, imaging, HUVEC, MLSMR starter and 10KST1 sets (AID 438);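 note: compound added about 3h40 before a 20 min TNFalpha stimulation; signal is the nuclear over cytoplasmic p65 intensity ratio per well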
# run-conditions: HUVEC TNFa-induced p65 nuclear translocation; at 2 µM, stronger effect = higher value, 0% TNFa-plus-vehicle, 100% no-TNFa wells
Exercise: state measured inhibition for each of the compounds provided.
Reply with just the number (in %).

GET /value?item= CCc1ccccc1NC(=O)CSC1=C(C#N)C(c2ccc(O)c(OC)c2)C2=C(CCCC2=O)N1 (stereo not given) &field=inhibition returns -8.4

GET /value?item= CCCOc1ccc(N2C(=O)CC(N(CCC)C(=O)CCC(=O)O)C2=O)cc1 (stereo not given) &field=inhibition returns -11.6

GET /value?item= `CCCCN1C[C@H](O)[C@@H](O)[C@H](O)[C@H]1CO` &field=inhibition returns -9.5

GET /value?item= `C=CCSc1nnc2n(CCc3ccccc3)c(=O)c3c4c(sc3n12)COC(C)(C)C4` &field=inhibition returns -1.7

GET /value?item= COc1ccc(N(CN2C(=O)C3C4C=CC(C4)C3C2=O)C(=O)c2ccco2)cc1 (stereo not given) &field=inhibition returns 2.9
